# System: HCT-116 colon
# assayOverview: NCI tumour cell line growth inhibition, 48 h; in the data active = GI50 below about 0.43 µM; inactive = the rest
Outcome field: choose from active, inactive

**Q:** Hello, I am checking results. What call was entered for C=C1CCC2C3(C)COC(c4cccc(Cl)c4)OC3CCC2(C)C1/C=C/C1=CCOC1=O (configuration not stated) ?
**A:** inactive

**Q:** Hello, I am checking results. What call was entered for C[CH2][Sn]([CH2]C)([O]C(=O)c1cc(OC)c(OC)c(OC)c1)[O][Sn]([CH2]C)([CH2]C)[O]C(=O)c1cc(OC)c(OC)c(OC)c1 ?
**A:** inactive

**Q:** Hello, I am checking results. What call was entered for C#CCSc1nnnn1-c1ccc(Br)c(C)c1 ?
**A:** inactive

**Q:** Hello, I am checking results. What call was entered for COc1ccc2c(c1)C(=O)/C(=C/c1ccc(OCC(=O)c3ccc(Cl)cc3)cc1)O2 ?
**A:** inactive

**Q:** Hello, I am checking results. What call was entered for CCN(CC)c1ccc(/C=C/C2=[N+](C)c3ccccc3C2(C)C)cc1 ?
**A:** active

**Q:** Hello, I am checking results. What call was entered for Cn1cc(-c2ccc3c(c2)ncn3-c2ccc(CC(=O)Nc3cc(C(C)(C)C)on3)cc2)cn1 ?
**A:** inactive

**Q:** Hello, I am checking results. What call was entered for CC(=O)[CH-]C(=O)c1ccccc1.CC(=O)[CH-]C(=O)c1ccccc1.[O-]Cc1cccs1.[O-]Cc1cccs1.[Ti+4] ?
**A:** inactive

**Q:** Hello, I am checking results. What call was entered for CC1(C)CCC(CN2CCN(c3ccc(C(=O)NS(=O)(=O)c4ccc(NCC5CCOCC5)c([N+](=O)[O-])c4)c(Oc4cnc5[nH]ccc5c4)c3)CC2)=C(c2ccc(Cl)cc2)C1 ?
**A:** inactive

**Q:** Hello, I am checking results. What call was entered for C/C(=N\NC(=S)Nc1ccccc1)c1ccccn1 ?
**A:** active

**Q:** Hello, I am checking results. What call was entered for O=C(/C=C/c1cccnc1)/C=C/c1cccnc1 ?
**A:** active

**Q:** Hello, I am checking results. What call was entered for CC/C(=C(/CC)c1ccc(OP(=O)([O-])[O-])cc1)c1ccc(OP(=O)([O-])[O-])cc1.N.N.N.N.[Pt+4].[Pt+4] ?
**A:** inactive

**Q:** Hello, I am checking results. What call was entered for Nc1nccc(C#Cc2cncnc2Nc2ccc(OCc3cccc(F)c3)c(Cl)c2)n1 ?
**A:** inactive

---

# Test system: CAKI-1 renal
# assayOverview: NCI tumour cell line growth inhibition, 48 h
measuredProperty: TGI

**Q:** Look up and report measured TGI for this entry: COc1cc([C@@H]2c3cc4c(cc3[C@@H](N=Cc3ccc(C(=O)O[C@H]5C[C@H]6OC[C@@]6(OC(C)=O)[C@H]6[C@H](OC(=O)c7ccccc7)[C@]7(O)C[C@H](OC(=O)[C@H](OC(=O)c8ccc(C=N[C@@H]9c%10cc%11c(cc%10[C@@H](c%10cc(OC)c(O)c(OC)c%10)[C@H]%10C(=O)OC[C@@H]%109)OCO%11)cc8)[C@@H](NC(=O)c8ccccc8)c8ccccc8)C(C)=C([C@@H](OC(C)=O)C(=O)[C@]56C)C7(C)C)cc3)C3COC(=O)C32)OCO4)cc(C)c1O (stereo partly specified)
**A:** > 50 µM

**Q:** Look up and report measured TGI for this entry: O=C(O)Cc1ccccc1
**A:** > 1000 µM

**Q:** Look up and report measured TGI for this entry: COc1cc(C2c3cc4c(cc3[C@@H](OCCN)[C@H]3COC(=O)C23)OCO4)cc(OC)c1O (stereo partly specified)
**A:** 1.52 µM

**Q:** Look up and report measured TGI for this entry: Cc1ccc(NC(=O)c2cc(S(=O)(=O)N3CCNNC3=O)c(S)cc2Cl)cc1
**A:** > 100 µM

**Q:** Look up and report measured TGI for this entry: C=C1C(=O)C23C(O)C1CCC2C12CO[C@]3(O)[C@@H](O)C1C(C)(C)CCC2O (stereo partly specified)
**A:** 28.5 µM

**Q:** Look up and report measured TGI for this entry: CCOC(=O)C1=C(O)CSC1=Nc1ccc(N=C2SCC(O)=C2C(=O)OCC)cc1
**A:** 30.8 µM
